Tested on: IRAK1
Settings: concentration: 1 μM, replicates: in singlicate; n = 1;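 also: KINOMEscan kinase panel screen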
Kind request: treat 6% as inclusive, so %Inh at 6% or higher is True, anything lower is False.

Task: API: above_or_equal(metric=%Inh, cutoff=6%) for item FC(F)(F)c1ccc(-c2ncn(CCCN3CCOCC3)c2-c2ccncc2)cc1 [SB-217780]
Output: False

Task: // query: COc1cc2ncn(-c3cc(OCCCc4ccccc4)c(C(N)=O)s3)c2cc1OC [GSK205189]
Output: False

Task: Also need CCn1c(-c2nonc2N)nc2ccccc21 [SB-693162/GW549034] , thanks.
Output: False

Task: Try Cc1c(Cn2c(C)nn3c(=O)cc(N4CCO[C@H](C)C4)nc23)cccc1C(F)(F)F [GSK2373690] next.
Output: True

Task: Also COc1cc(Nc2ccnc3ccc(C(F)(F)F)cc23)cc(OC)c1OC [GW577382] , if possible.
Output: True

Task: Entry to check: C[C@@H]1CC[C@H](C(=O)NC2CCCCC2)CN1c1cc(-c2ccc3c(N)n[nH]c3c2)nc(N)n1 [GSK2291363]
Output: True

Task: Another: Cc1cccc(-c2cc(-c3c[nH]nc3-c3ccccn3)ccn2)c1 [GW679395]
Output: True

Task: `COc1ccc(-c2cc3c(C)nc(N)nc3n([C@H]3CC[C@H](O)CC3)c2=O)cn1` , same question.
Output: False

Task: Follow-up item: COc1cc2ncn(-c3cc(OCc4ccc(S(C)(=O)=O)cc4)c(C(N)=O)s3)c2cc1OC [GW869979]
Output: True

Task: And the next one, Nc1ncnc2c1ncn2-c1cccc(F)c1 [SKF-97560] ?
Output: True

Task: Now the molecule CCn1c(-c2ccoc2)nc2cnccc21 [SB-733887]
Output: True

Task: Follow-up item: `CCC(=O)c1c(-c2ccccc2)c2cc(Cl)ccc2c(=O)n1Cc1cc(S(C)(=O)=O)n(CC(N)=O)n1`
Output: False

Task: Follow-up entry: Cl.NS(=O)(=O)c1cccc(Nc2cc(-c3ccc(F)cc3)n[nH]2)c1 [GW824645]
Output: False

Task: Proceed to `CC(C)(C)c1ccc(C(=O)Nc2cn3cc(-c4ccccc4)ccc3n2)cc1`
Output: True

Task: Input `CCc1nc(-c2cccc(C)c2)c(-c2ccncc2)s1`
Output: False

Task: Thanks! And O=C(Nc1n[nH]c2cc(-c3ccccc3F)ccc12)C1CC1 [SB-733371] ?
Output: False

====

Answer each item with its documented %Inh.
Test system: OSR1
Construct: gene OXSR1
Settings: concentration: 1 μM, replicates: in singlicate; n = 1
Provide the reading as a plain figure in %.

Task: // query %Inh value for entry `CCC(=O)c1c(-c2ccccc2)c2cc(Cl)ccc2c(=O)n1Cc1cc(C(=O)NC2CC2)n(C)n1`
Output: 0

Task: Another: `Cc1nc(N(C)[C@H]2CN(C(=O)CC#N)CC[C@H]2C)c2cc[nH]c2n1`
Output: 0

Task: Now try `O=C(Nc1n[nH]c2nc(-c3ccccc3)c(Cl)cc12)C1CC1` .
Output: 0

Task: Same thing, different compound: `Nc1n[nH]c2ncc(-c3ccccc3)cc12`
Output: 0

Task: # iterate: `COc1cc2nccc(Nc3ccc(OCc4ccc(NC(C)=O)cc4)cc3)c2cc1OC.Cl`
Output: 0

====

Tested on: CSF1R
Details: concentration: 1 μM, replicates: in singlicate; n = 1
Please provide measured %Inh for the entries that follow.
The answer is to be given in %; state only the numeric part.

Task: Lab note: need %Inh for `Nc1nc(N)c2nc(-c3ccccc3)[nH]c2n1` on CSF1R, anyone have it?
Output: 2

Task: Would you mind doing `O=C1NC(=O)C(c2ccccc2)=C1Nc1cccc(O)c1` as well?
Output: 10

Task: Next up: `Cc1ccccc1COc1cc(-n2cnc3cc(Cl)ccc32)sc1C(N)=O`
Output: 0

Task: Please answer likewise for `Fc1cccc(CSc2nnc(-c3ccc4c(c3)CCO4)o2)c1`
Output: 0

Task: Also check `O=c1cc(N2CCOCC2)nc2n(Cc3ccc(F)c(Cl)c3)ccn12`
Output: 26

====

System: ERN1
Conditions: concentration: 1 μM, replicates: in singlicate; n = 1
// NB: equality with 9% counts as 0.0; only %Inh strictly below is 1.0

Task: Hello, I'm reviewing records and need to know if %Inh of `CCCNC(=O)Nc1ccc(Oc2ncnc3ccn(C)c23)cc1` is below 9%. Could you check?
Output: 0.0

Task: Also COc1cc(Nc2nccc(N3CCC(NC(=O)C(C)c4ccc(Cl)cc4)C3)n2)cc(OC)c1OC (centres unmarked) ?
Output: 1.0

Task: Same question, `CCC(=O)c1c(-c2ccccc2)c2cc(Cl)ccc2c(=O)n1Cc1cc(S(C)(=O)=O)n(CCC(C)(C)O)n1` this time
Output: 0.0

Task: Moving on to the next compound: CCS(=O)c1ccc(-c2coc3ccc(-c4nnc(C)o4)cc23)cc1 (centres unmarked)
Output: 0.0

====

System: MKNK1
Conditions: concentration: 1 μM, replicates: in singlicate; n = 1
readout label: %Inh (%)
Provide the reading as a plain figure in %.

Task: Query %Inh on MKNK1 for `CN(C)c1cc(-c2ccc3c(N)n[nH]c3c2)nc(N)n1`
Output: 0

Task: What about this compound? `COC(=O)c1c(-c2ccccc2)c2cc(C)ccc2c(=O)n1Cc1ccccc1`
Output: 0

Task: Next compound: `O=C(Nc1n[nH]c2cc(-c3ccccc3F)ccc12)C1CC1`
Output: 0

Task: Now the same for `COc1cc(Nc2ccnc3ccc(C(F)(F)F)cc23)cc(OC)c1OC`
Output: 29

Task: Follow-up item: `Cc1nnc(-c2ccc(C)c(-c3ccc(C(=O)O)cc3)c2)o1`
Output: 0

Task: Moving on to the next compound: `COc1cccc(-n2cnc3c(N)ncnc32)c1`
Output: 0

Task: Moving on to `Nc1nc(-c2ccccc2F)c(-c2ccnc3ccccc23)s1`
Output: 12

Task: Please do the same for `COc1ccc(-c2cc3c(C)nc(N)nc3n([C@H]3CC[C@H](O)CC3)c2=O)cn1` as well.
Output: 0

Task: Note, next up: `Nc1ncnc2c1ncn2-c1ccc(Cl)cc1`
Output: 26

Task: Input `Cl.NS(=O)(=O)c1cccc(Nc2cc(-c3ccc(F)cc3)n[nH]2)c1`
Output: 8

Task: Also `CN1C(=O)C(Nc2ccccc2)=C(c2ccccc2)C1=O` ?
Output: 0

Task: Query `COc1ccc(-c2coc3ccc(-c4nnc(SCc5cccc(C#N)c5)o4)cc23)cc1` next
Output: 20

Task: Let us now turn to `Cn1c(=O)c(F)c(Nc2ccc(I)cc2F)c2c(=O)n(OC[C@H](O)CO)cnc21`
Output: 4

Task: How about COc1ccc(Nc2nccc(N3CCC(NS(=O)(=O)c4ccc(NC(C)=O)cc4)C3)n2)cc1 (centres unmarked) ?
Output: 22

Task: Another compound to check: `Nc1nc(N)c2nc(-c3ccccc3)[nH]c2n1`
Output: 0

Task: Ok, now `COc1ccc(-n2cnc3c(N)ncnc32)cc1`
Output: 9

Task: // next record CCS(=O)c1ccc(-c2coc3ccc(-c4nnc(C)o4)cc23)cc1 (centres unmarked)
Output: 17

Task: Thanks! And `O=C(NCc1cccs1)c1cc(C(=O)c2c(Cl)cccc2Cl)c[nH]1` ?
Output: 0

Task: // next record `CCCC(=O)Nc1n[nH]c2ncc(-c3cccc4ccccc34)cc12`
Output: 10

Task: Also check `CCCNC(=O)Nc1ccc(Oc2ncnc3ccn(C)c23)cc1`
Output: 23

====

Test system: PKN1
Details: concentration: 1 μM, replicates: in singlicate; n = 1
readout label: %Inh (%)
Report only the number, with the unit % understood.

Task: Need %Inh, item `Cc1nnc(-c2ccc(C)c(-c3ccc(C(=O)O)cc3)c2)o1`
Output: 28

Task: Follow-up entry: `Nc1nc(-c2ccccc2F)c(-c2ccnc3ccccc23)s1`
Output: 3

Task: // repeat for `CN1C(=O)C(Nc2ccccc2)=C(c2ccccc2)C1=O` and report
Output: 0

Task: Now this one: `COc1cc2ncn(-c3cc(OCCCc4ccccc4)c(C(N)=O)s3)c2cc1OC`
Output: 0

Task: What about `Nc1nc(N)c2nc(-c3ccccc3)[nH]c2n1` ?
Output: 43

Task: Request: `CCn1c(-c2ccoc2)nc2cnccc21`
Output: 7

Task: How about `Fc1cccc(CSc2nnc(-c3ccc4c(c3)CCO4)o2)c1` ?
Output: 0

Task: Try this compound next: `COc1cc(Nc2ccnc3ccc(C(F)(F)F)cc23)cc(OC)c1OC`
Output: 0

Task: Another compound: `CN1C(=O)C(Nc2cc(Cl)c(O)c(Cl)c2)=C(c2ccc(Cl)cc2)C1=O`
Output: 0

Task: Same thing, different compound: `COc1cc(OC)cc(-c2cc3cnc(N)nc3nc2NC(=O)NC(C)(C)C)c1`
Output: 0

Task: Record: `Nc1ncnc2c1ncn2-c1cccc2ccccc12`
Output: 0

Task: And `Cc1c(Cn2c(C)nn3c(=O)cc(N4CCO[C@H](C)C4)nc23)cccc1C(F)(F)F` ?
Output: 0

Task: Now try `COC(=O)c1c(-c2ccccc2)c2cc(Br)ccc2c(=O)n1Cc1ccc(S(C)(=O)=O)cc1` .
Output: 1

Task: Consider next the compound `Cc1ccccc1COc1cc(-n2cnc3cc(Cl)ccc32)sc1C(N)=O` in the same way.
Output: 7

Task: Entry `Cc1cccc(-c2cc(-c3c[nH]nc3-c3ccccn3)ccn2)c1` please
Output: 0
